Recorded values, source ChEMBL document CHEMBL1159335.

Tested on: Macrophage
protocol-description: Inhibition of LPS-induced NO production in ddY mouse peritoneal macrophages at 10 uM by Griess reagent method
Type: functional
quantity: inhibition at 10 µM (%)
The reply should contain only the number, in %.

Input: Return reported inhibition at 10 µM; argument: Oc1ccc2cc1Oc1ccc(cc1)CC[C@H](O)CCCC2 [ACEROGENIN A]
Output: 11.6

Input: Any idea what its inhibition at 10 µM is? The molecule is Oc1ccc2cc1Oc1ccc(cc1)CCCC[C@H](O)CC2 [ACEROGENIN B]
Output: -0.2

Input: Look up inhibition at 10 µM: "Oc1ccc(CCCC[C@@H](O)CCc2ccc(O)cc2)cc1"
Output: -1.1

Input: Name the recorded inhibition at 10 µM for Oc1ccc2cc1-c1cc(ccc1O)CCC(O)CCCC2 (stereo not given) [ACEROGENIN K] .
Output: 24.3

Input: Fill blank: measured inhibition at 10 µM of the molecule O=C1CCCCc2ccc(O)c(c2)-c2cc(ccc2O)CC1 [ACEROGENIN E] is ____.
Output: 13.6

* * *

Tested on: Macrophage
protocol-description: Inhibition of LPS-induced NO production in ddY mouse peritoneal macrophages at 3 uM by Griess reagent method
Format: functional
Would you kindly list inhibition at 3 µM for each of these compounds?
Answer in %, number only, no unit symbol.

Input: Find inhibition at 3 µM (Macrophage) for the entry "Oc1ccc2cc1Oc1ccc(cc1)CC[C@H](O)CCCC2"
Output: 5.8

Input: Kindly state the measured inhibition at 3 µM obtained for "Oc1ccc(CCCC[C@@H](O)CCc2ccc(O)cc2)cc1" with Macrophage.
Output: 1.3

Input: Request body: readout inhibition at 3 µM, system Macrophage, query Oc1ccc2cc1-c1cc(ccc1O)CCC(O)CCCC2 (stereo not given) . Return the value.
Output: 2.1

Input: Query inhibition at 3 µM on Macrophage for "Oc1ccc2cc1Oc1ccc(cc1)CCCC[C@H](O)CC2"
Output: -0.5

Input: Could you share what inhibition at 3 µM was measured for "O=C1CCCCc2ccc(O)c(c2)-c2cc(ccc2O)CC1" , tested on Macrophage?
Output: 3.3
